system: Inhibin beta A chain (activin A); assay: small molecules binding activin A – biochemical, small-molecule microarray, 635 nm fluorescence scan, primary screen (AID 1107); details: INHBA, higher = more signal;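 also: mouse activin A protein probed at 4.33 µg/mL on printed slides; score merges bound-protein fluorescence near 667 nm with spot signal-to-noise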
PROPERTY_NAME: composite z-score

Worked set:
-- ask Which measured composite z-score belongs to `Cc1ccc(S[C@]2(C(=O)NCc3ccccc3)CC(=O)N(C3Cc4ccccc4C3)[C@@H]2c2ccc(CO)cc2I)cc1` , tested on Inhibin beta A chain (activin A)?
-- reply 0.889

-- ask Same read-out for CCOc1cc(C(O)C2C=CC3C(=O)NC(=O)C3N2Nc2ccccn2)ccc1O (configuration not stated) ?
-- reply 0.925

-- ask Same read-out for `COCCCNC(=O)[C@]1(CCS(=O)(=O)c2ccccc2)N=C(c2ccc(OCCCO)cc2)O[C@@H]1c1ccccc1` ?
-- reply 0.455

Next:
-- ask Which measured composite z-score belongs to `COC(=O)c1c(CC[C@@H](CO)NC(=O)N[C@@H](C)Cn2cc(C3(O)CCCC3)nn2)oc(C(C)=O)c1C(=O)OC` , tested on Inhibin beta A chain (activin A)?
-- reply -0.338

-- ask Same read-out for CC(C)C[C@H]1NC(=O)[C@H](C)NC(=O)[C@@]23C(=O)N[C@@H](Cc4ccccc4)C2[C@H](C)[C@@]2(C)O[C@H]2C3/C=C/C/C=C\CNC1=O (some centres not stated) ?
-- reply 1.55

-- ask Same read-out for `CCCC[C@@H](O)C1=C(COc2ccccc2)Cn2c(=O)n(-c3ccccc3)c(=O)n2[C@H]1CO` ?
-- reply 0.606

-- ask Same read-out for `COc1ccc(C(=O)Nc2ccc(CN3C(=O)[C@]4(O[C@H](CCn5cc([C@H](O)c6ccccc6)nn5)[C@@H]([Si](C)(C)c5ccc(OC)cc5)[C@@H]4C)c4ccccc43)cc2)cc1` ?
-- reply 1.47

FYI, the data here is from PubChem BioAssay.
